From: PubChem BioAssay AID1745850

- experimental-protocol: Viability Counterscreen for Confirmatory qHTS for Inhibitors of ATXN expression; also: nearly all actives have a fitted effect of over 50% in size
- cond: HEK-293 ATXN2-luc cells viability, CellTiter-Fluor, 24 h
About 260 (12%) of roughly 2,100 compounds were called active. About 58% were inconclusive and are not listed. Calls follow the shape of the dose curve; as a rule, active = well fitted cell-killing curve with a large enough effect; inconclusive = small, poorly fitted or top-dose-only effect, or effect the other way; inactive = flat fitted curve, though single readings scatter. This is one part of the list.
Pick one and only one: 1.0 = active, 0.0 = inactive

Consider the following illustrative entries.
O=C(Nc1c(Cl)cccc1Cl)Oc1cccc2cccnc12    0.0
COc1cc(-c2ccc3sc(-c4ccsc4)c(C#CCO)c3c2)cc(OC)c1OC    1.0
Cc1ccc(-c2c(C#N)c(N)n3c(nc4ccccc43)c2C#N)cc1    0.0
Cc1ccc(/C=C2\SC(=S)N(CCCC(=O)Nc3cccnc3)C2=O)cc1    1.0
Cc1cc(Nc2cccc([N+](=O)[O-])c2)n2c(nc3ccccc32)c1C#N    1.0

Ask | Hello, I am checking results. What call was entered for CCN(CCCn1c(=S)[nH]c2ccc(N3CCOCC3)cc2c1=O)c1ccccc1 ?
Reply | 0.0

Ask | Hello, I am checking results. What call was entered for COc1ccc(-c2sc3ccc(OC)cc3c2-c2ccc(O)cc2)cc1 ?
Reply | 0.0

Ask | Would you mind telling me which call this test gave CN1CCC2(CC1)N=C(c1ccc(F)cc1)C(=S)N2C(=O)c1ccc(C(C)(C)C)cc1 ?
Reply | 0.0

Ask | Please indicate how the test categorized COc1cc(-c2nnc(SCC(=O)N(Cc3ccccc3)C(C)(C)C)o2)cc(OC)c1OC .
Reply | 0.0

Ask | Status in this test for COc1ccc(N=Cc2cc3c(cc2O)OC(N)=C(C#N)C3c2ccccc2)cc1 (stereo unspecified) ?
Reply | 0.0

Ask | Hi team, can someone confirm the assay call for CC1(C)Cc2c(ccc3ccccc23)C2=C(C(=O)N3CCCC3)C(=O)C(=O)N21 ?
Reply | 0.0

Ask | # fetch the recorded call for CCc1ccc(C(=O)NNC(=O)C2CCN(c3ncnc4sc(C)c(C)c34)CC2)cc1 here
Reply | 0.0

Ask | For O=C(NC(=S)NCc1nc2ccccc2[nH]1)c1ccc(F)cc1 , what call appears in the results of this test?
Reply | 0.0

Ask | Hi, do you know how CCCCn1c(SCC(=O)Nc2cc(NC(=O)c3ccco3)ccc2C)nc2ccccc2c1=O came out in this test?
Reply | 0.0

Ask | Given CCN(CC)c1ccc(C(=O)N/N=C/c2ccccc2OC(F)F)cc1 , state the outcome it received in this test.
Reply | 0.0

Ask | Name the outcome recorded for CC(=O)C(C(C)=O)c1c(Cl)c(O)c(O)c2c(C(=O)c3ccccc3)coc12 in the assay.
Reply | 1.0

Ask | Outcome? COc1cc(CNCc2ccncc2)cc(Br)c1OCc1ccccc1F
Reply | 0.0

Ask | Hi, sorry to bother you, what did the test record for O=C(Nc1nccs1)c1cccc(N2C(=O)c3cccc4c([N+](=O)[O-])ccc(c34)C2=O)c1 ?
Reply | 0.0

Ask | So what was the verdict on C[C@@H]1CC=C[C@@H]2[C@H]1C(=O)N(Cc1ccccc1)[C@H]2c1ccccc1Br in this test?
Reply | 0.0

Ask | Check the results log: what was the call for CCN(CC)c1ccc(/C=C/c2cccc[n+]2C)c(OC)c1 ?
Reply | 1.0

Ask | Hey, what did the test say about Cc1cc(OCC(=O)Nc2ccc(Br)cc2)cc2c1C(=O)CC(C)(C)O2 ?
Reply | 0.0
